- Measurement Target: HDAC10 (Homo sapiens)
- Sequence (Q969S8 whole entry): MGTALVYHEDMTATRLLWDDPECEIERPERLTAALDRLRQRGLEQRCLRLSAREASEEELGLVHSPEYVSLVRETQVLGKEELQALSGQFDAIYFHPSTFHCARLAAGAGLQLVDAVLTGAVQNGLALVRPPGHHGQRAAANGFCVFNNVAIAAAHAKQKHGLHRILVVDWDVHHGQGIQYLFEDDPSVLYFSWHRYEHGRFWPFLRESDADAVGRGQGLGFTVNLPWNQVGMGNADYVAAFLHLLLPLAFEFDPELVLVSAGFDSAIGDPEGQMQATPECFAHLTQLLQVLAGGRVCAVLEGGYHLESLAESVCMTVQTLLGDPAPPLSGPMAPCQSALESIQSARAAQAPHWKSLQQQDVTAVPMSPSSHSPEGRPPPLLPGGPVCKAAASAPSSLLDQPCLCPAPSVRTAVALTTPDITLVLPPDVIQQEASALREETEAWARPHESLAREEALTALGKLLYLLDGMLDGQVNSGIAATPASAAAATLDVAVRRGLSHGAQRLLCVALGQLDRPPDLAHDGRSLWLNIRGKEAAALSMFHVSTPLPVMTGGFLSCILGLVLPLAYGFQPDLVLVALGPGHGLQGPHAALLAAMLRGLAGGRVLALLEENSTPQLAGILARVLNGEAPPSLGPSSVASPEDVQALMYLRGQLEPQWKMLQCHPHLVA
- Experiment Notes: NanoBRET cellular target engagement assay
- Experimental Context: HeLa cells
Assay Readout: IC50
The answer should read as a number with its unit following.

QUERY: Lab note: need IC50 for Cc1ccc(C(=O)NO)cc1NCc1ccccc1 [TH34] on HDAC10 (Homo sapiens), anyone have it?
RESULT: 7.7 µM

Each recorded value in this set is attributed to paper PMC6063332.
